Overview of recorded protein stability index for various variants
B1: ZNF263 (parent)
chain: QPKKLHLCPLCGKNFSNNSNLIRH

variants of: B1; assay: protein stability index of a GFP-peptide fusion (GPS, HEK-293T) (PSI 1-6); higher = more stable; conditions: c terminus: a fixed tail appended;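 also: lentivirally expressed fusions sorted by FACS into six bins by GFP to DsRed ratio, PSI derived from sequencing read proportions per bin multiplied by bin number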
Write the value as a bare number.

Request: What protein stability index value was documented for this variant, `K4L` ?
Result: 2.97

Request: Which protein stability index is reported for this variant? `K4D`
Result: 3

Request: State the recorded protein stability index for this entry: `N18L`
Result: 3.11

Request: Query (variant): `N18H` ; field requested: protein stability index
Result: 2.82

Request: Form field: reported protein stability index of `K13Y`
Result: 2.91

Request: Form field: reported protein stability index of `I22S`
Result: 2.55

Request: Look up protein stability index: `N17Y`
Result: 2.23

Request: Entry `P2V` : reported protein stability index = ?
Result: 2.3

Request: I have this variant here, `N18W` , and I need its recorded protein stability index.
Result: 2.73

Request: Sample `P9D` — what was its protein stability index?
Result: 2.56

---
Request: // lookup protein stability index for `L7R`
Result: 2.72

Request: So what does the record say about protein stability index for `K4H` ?
Result: 2.49

Values were extracted from the supplement of paper PMC10567573.
